Would you mind telling me the reported AUC of each entry?
Test system: Rattus norvegicus
TEST: AUC in rat at 4 mg/kg, po and 2 mg/kg, iv
Assay type: ADME, organism-based, Plasma
EXPERIMENTAL CONDITIONS: in vivo
Give bare numbers, in ng·h/mL.

Below, 3 molecules whose answers are already recorded.
Hello, I am looking for reported AUC with Rattus norvegicus for `O=C(O)CCNC(=O)c1ccc(CN(C(=O)Nc2ccc(OC(F)(F)F)cc2)c2ccc(C3CCCCC3)cc2)cc1` . Could you help?
1600

Reported AUC for Rattus norvegicus, given `CC(C)c1ccc(NC(=O)N(Cc2ccc(C(=O)NCCC(=O)O)cc2)[C@H]2CC[C@H](C(C)(C)C)CC2)cc1` ?
43.3

Look up AUC with Rattus norvegicus for this molecule: `O=C(O)CCNC(=O)c1ccc(CN(C(=O)Nc2cc(Cl)cc(Cl)c2)c2ccc(C3=CCCCC3)cc2)cc1`
2970

Now for another entry.
GET /values?readout=AUC&system=Rattus norvegicus&item= `CC(C)(C)[C@H]1CC[C@H](N(Cc2ccc(C(=O)NCCC(=O)O)cc2)C(=O)Nc2ccc(OC(F)(F)F)cc2)CC1`
217
